Test system: HOP-62 NSCLC
Assay: NCI tumour cell line growth inhibition, 48 h; in the data active = GI50 below about 0.43 µM; inactive = the rest
Possible outcomes: active, inactive

Compound: Oc1ccc(-c2[nH]c3ccccc3c2-c2nc3ccccc3o2)cc1
Group Label: inactive
--
Compound: COc1ccc(C(=O)/C=C/c2ccc(OCc3ccccc3)c(OC)c2)cc1OC
Group Label: inactive
--
Compound: Nc1n[nH]c2ccc([C@@H]3Nc4c(F)cc5[nH]ncc5c4[C@H]4C5CCC(C5)[C@@H]34)cc12 (stereo partly drawn)
Group Label: inactive
--
Compound: c1ccc2c(c1)[O][Sn][O]2
Group Label: inactive
--
Compound: COc1ncc2cc1NS(=O)(=O)c1cccc(c1)C(=O)NCC1=CC=C(S1)c1ncnc3c1SC2=C3C
Group Label: active
--
Compound: Cc1cc(-c2ccco2)cc(C)c1/C=C/c1cncc(-c2nn[nH]n2)c1
Group Label: inactive
--
Compound: Cc1ccc(O)cc1Nc1ccnc2cc(-c3ccccn3)ccc12
Group Label: inactive
--
Compound: CCOC(=O)c1cc2cc(OCc3ccccc3)ccc2[nH]1
Group Label: inactive
--
Compound: Nc1ccn([C@@H]2S[C@H](CO)[C@@H](O)[C@@H]2F)c(=O)n1
Group Label: active
--
Compound: CCN(CC)CCS(=O)(=O)CCNc1ccnc2cc(Cl)ccc12
Group Label: inactive
--
Compound: Nc1c(C(=O)Nc2ccccn2)sc2nc3c(cc12)CCCCCC3
Group Label: inactive
--
Compound: CN(c1ccc(NC(=O)NCCN2CCOCC2)cc1)c1ccnc(Nc2ccc(CS(C)(=O)=O)cc2)n1
Group Label: inactive
--
Compound: C=C(C)[C@@H]1CC[C@]2(C(=O)n3ccnc3)CC[C@]3(C)[C@H](CC[C@@H]4[C@@]5(C)CCCNC(C)(C)[C@@H]5CC[C@]43C)[C@@H]12
Group Label: inactive
--
Compound: O=C1C2C(C(=O)N1CC[Se][Se]CCN1C(=O)C3C(C1=O)[C@H]1C=C[C@@H]3C1)[C@H]1C=C[C@@H]2C1 (stereo partly drawn)
Group Label: inactive
--
Compound: CN1CCOCCOCCOc2ccccc2NC(=O)c2nc(cnc2N)-c2ccc(cc2)S1(=O)=O
Group Label: inactive
--
Compound: COc1cc(OC)c(/C=C/C(=O)c2c(N)cc(OC)cc2OC)c(OC)c1
Group Label: inactive
--
Compound: COC(=O)C1=Nc2ccc(F)cc2/C1=C/c1sc(=S)[nH]c1O
Group Label: active
--
Compound: CCOC(=O)C1=CSC2=NC3=C(CCC/C3=C\c3cc(OC)c(OC)c(OC)c3)C(c3cc(OC)c(OC)c(OC)c3)N12 (stereo not drawn)
Group Label: inactive

# credit: PubChem BioAssay (NCI)
